Target: HLA-DRB1*0101 (human)
Assay: competition binding
Details: modification not given
MEASURED PARAMETER: IC50 (µM)
Enter your answer as a number in µM; do not include the unit.

As a guide, the following entries are already answered.
Prompt: Recorded IC50 of SQRMEPRAPWIEQEGP [p9] , please.
Completion: 10.8

Prompt: Recorded IC50 of HRVDLGTLRGYYNQS [p13*] , please.
Completion: 0.089

Prompt: Recorded IC50 of VDLGTLRGYYNQSEA [p14*] , please.
Completion: 0.209

Prompt: Recorded IC50 of VGYVDDTQFVRFDSD [p6] , please.
Completion: 27.7

Next:
Prompt: Recorded IC50 of GTFQKWAAVVVPSGQ [p45*] , please.
Completion: 0.004

Prompt: Recorded IC50 of PEYWDGETRKVKAHS [p11] , please.
Completion: 4.95

Prompt: Recorded IC50 of THMTHHAVSDHEATL [p38] , please.
Completion: 8

Taken from patent US20110038881A1.
